Tested on: HepaRG
Test: LDH release cytotoxicity, % of total lysis control; higher = more cytotoxic
Details: 0.1581139 µM; 48 h
Structures can show the parent of a compound that is named as a salt.
Provide the recorded LDH release cytotoxicity for the entries that follow.
// note: answer is a bare numeric in %

q: Give the measured LDH release cytotoxicity of Cc1ccc(C(C)C)cc1 [p-Cymene] .
a: -3.02

q: Item under review: CCCCCCCCCCCCCCCCOS(=O)(=O)O [Sodium hexyldecyl sulfate] . Reported LDH release cytotoxicity?
a: -1.25

q: Report LDH release cytotoxicity for CC(C)(C)OOC(C)(C)C [Di-tert-butyl peroxide] please.
a: -1.99

q: Consider the compound shown here: CC(C)(O)C(=O)Nc1ccc([N+](=O)[O-])c(C(F)(F)F)c1 [Hydroxyflutamide] What is its recorded LDH release cytotoxicity?
a: -0.846
